For each of the compounds below, state its IC50.
- System Tested: human DGAT2 (Homo sapiens)
- Construct: FLAG (DYKDDDDK); membrane fraction used
- Sequence (Q96PD7 whole entry): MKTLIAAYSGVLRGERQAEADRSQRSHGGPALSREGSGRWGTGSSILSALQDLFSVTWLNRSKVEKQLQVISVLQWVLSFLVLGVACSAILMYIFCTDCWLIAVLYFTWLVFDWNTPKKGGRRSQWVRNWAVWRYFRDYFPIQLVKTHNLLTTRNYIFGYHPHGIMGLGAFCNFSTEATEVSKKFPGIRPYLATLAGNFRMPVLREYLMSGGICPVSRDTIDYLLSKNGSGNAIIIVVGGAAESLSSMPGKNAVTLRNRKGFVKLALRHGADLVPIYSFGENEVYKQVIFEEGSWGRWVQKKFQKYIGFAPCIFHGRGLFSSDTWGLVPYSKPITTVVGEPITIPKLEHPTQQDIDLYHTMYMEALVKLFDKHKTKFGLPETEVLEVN
- Assay Info: DGAT2 enzyme activity inhibition, Phospholipid FlashPlate SPA
- Test Parameters: recombinant human DGAT2 membrane protein from Sf-21 cells; inhibition of [14C]-TG production; 37° C.
Answers are plain numbers, in nM.

Completed entries (count: 2):
{"columns": ["Compound", "IC50 [nM]"],
 "data": [
  ["CCOc1ccccc1O[C@@H]1CCCN(c2cncc(Nc3cccc(N4CCC(C(=O)O)C4)n3)n2)C1 (stereo partly drawn) [Example 52]", 730],
  ["CCOc1ccccc1O[C@@H]1CCCN(c2cncc(Nc3ccc(C(F)(F)F)c(-c4ccc(C(C)(C)C(=O)O)cc4)n3)n2)C1 [Example 109]", 1500]
]}

Now examine the next entry.
I would be grateful if you could share the reported IC50 for CCOc1ccccc1O[C@@H]1CCCN(c2ccnc(Nc3nccc(-c4cccc(CC(C)(C)C(=O)O)c4)n3)n2)C1 [Example 150] .
1200

src = patent US12630528B2
